- Test system: soybean (G1)
- test-details: Test Example 5: selectivity for a crop plant by soil treatment in upland field
- Type: in vivo
- Parameters: scale not given here
- condition-info: dose 25 gai/10a, 21st day after treatment, index per Table 44

{"compound": "Cc1ccccc1CC(=O)N(C)C(c1cncnc1C(F)(F)F)C(C)C (racemic)", "Gl (herbicidal effect index on crop)": 3}
{"compound": "CC(C)C(c1cncnc1C1CC1)N(C)C(=O)Cc1ccc(Cl)cc1 (racemic)", "Gl (herbicidal effect index on crop)": 0}
{"compound": "CC#Cc1ccc(CC(=O)N(C)C(c2cncnc2C(F)(F)F)C(C)C)cc1 (racemic)", "Gl (herbicidal effect index on crop)": 0}
{"compound": "CCN(C(=O)Cc1ccc(C)cc1)C(c1cncnc1C(F)(F)F)C(C)C (racemic)", "Gl (herbicidal effect index on crop)": 1}
{"compound": "CCN(C(=O)Cc1ccc(C#N)cc1)C(c1cncnc1C(F)(F)F)C(C)C (racemic)", "Gl (herbicidal effect index on crop)": 0}
{"compound": "CC(C)C(c1cncnc1C(F)(F)F)N(C)C(=O)Cc1ccc(C#N)cc1 (racemic)", "Gl (herbicidal effect index on crop)": 0}
{"compound": "CC(C)C(c1cncnc1C(F)(F)F)N(C(=O)Cc1ccccc1)C1CC1 (racemic)", "Gl (herbicidal effect index on crop)": 0}
{"compound": "CN(C(=O)Cc1ccc(F)cc1)C(c1cncnc1C(F)(F)F)C(C)(C)C (racemic)", "Gl (herbicidal effect index on crop)": 1}
{"compound": "CC(C)C(c1cncnc1C(F)(F)F)N(C)C(=O)C=Cc1ccccc1 (racemic)", "Gl (herbicidal effect index on crop)": 0}
{"compound": "CC(C)C(c1cncnc1C(F)(F)F)N(C)C(=O)COc1ccccc1 (racemic)", "Gl (herbicidal effect index on crop)": 2}
{"compound": "CC(C)c1ccc(CC(=O)N(C)C(c2cncnc2C(F)(F)F)C(C)C)cc1 (racemic)", "Gl (herbicidal effect index on crop)": 0}
{"compound": "CCC(C)C(c1cncnc1C(F)(F)F)N(C)C(=O)Cc1ccc(F)cc1 (mixture of isomers)", "Gl (herbicidal effect index on crop)": 0}
{"compound": "CCC(C)C(c1cncnc1C(F)(F)F)N(C)C(=O)Cc1ccc(Cl)cc1 (mixture of isomers)", "Gl (herbicidal effect index on crop)": 0}
{"compound": "CC(C)C(c1cncnc1C(F)(F)F)N(C)C(=O)Cc1ccc(Cl)c(Cl)c1 (racemic)", "Gl (herbicidal effect index on crop)": 0}
{"compound": "CCCN(C(=O)Cc1ccc(C#N)cc1)C(c1cncnc1C(F)(F)F)C(C)C (racemic)", "Gl (herbicidal effect index on crop)": 0}
{"compound": "CC(C)C(c1cncnc1C(F)(F)F)N(C(=O)Cc1ccc(Cl)cc1)C1CC1 (racemic)", "Gl (herbicidal effect index on crop)": 0}

* * *

- Test system: rice (Or)
- test-details: Test Example 4: selectivity for a crop plant by flooded paddy field treatment
- Type: in vivo
- Set-up: scale not given here
- condition-info: rice transplanted at second leaf stage, dose 25 gai/10a, 21st day after treatment, index per Table 44
- Experimental: In a 100 cm^2 plastic pot, a paddy field soil was filled and paddled. Then, seeds of barnyard grass (Eo) and monochoria (Mo) were sown, and rice (Or) of second leaf stage was transplanted, and water was introduced to a depth of 3 cm. Next day, a wettable powder prepared in accordance with Formulation Example 1 was diluted with water and dropwise applied to the water surface. The dose was 25 g of the active ingredient per 10 ares. […]
Measured Or (herbicidal effect index on crop), listed per entry for reference.
reported-metric: Or (herbicidal effect index on crop)

{"compound": "COc1ccccc1C(c1cncnc1C(F)(F)F)N(C)C(=O)Cc1ccc(Cl)cc1 (racemic)", "reported-metric": "Or (herbicidal effect index on crop)", "recorded-result": 0}
{"compound": "CN(C(=O)Cc1ccccc1)C(c1cncnc1C(F)(F)F)C1CCCC1 (racemic)", "reported-metric": "Or (herbicidal effect index on crop)", "recorded-result": 1}
{"compound": "Cc1ccc(CC(=O)N(C)C(c2cncnc2C(F)(F)F)C(C)C)s1 (racemic)", "reported-metric": "Or (herbicidal effect index on crop)", "recorded-result": 1}
{"compound": "COc1ccc(C(c2cncnc2C(F)(F)F)N(C)C(=O)Cc2ccc(F)cc2)cc1 (racemic)", "reported-metric": "Or (herbicidal effect index on crop)", "recorded-result": 1}
{"compound": "C#CCN(C(=O)Cc1ccc(Cl)s1)C(c1cncnc1CC)C(C)C (racemic)", "reported-metric": "Or (herbicidal effect index on crop)", "recorded-result": 1}
{"compound": "CSc1ncncc1C(C(C)C)N(C)C(=O)Cc1ccc(F)cc1 (racemic)", "reported-metric": "Or (herbicidal effect index on crop)", "recorded-result": 1}
{"compound": "COC(=O)c1ncncc1C(C(C)C)N(C)C(=O)C(C)c1ccc(Cl)cc1 (single isomer, unassigned)", "reported-metric": "Or (herbicidal effect index on crop)", "recorded-result": 0}
{"compound": "CN(C(=O)Cc1ccc(F)cc1)C(c1cccs1)c1cncnc1C(F)(F)F (racemic)", "reported-metric": "Or (herbicidal effect index on crop)", "recorded-result": 1}
{"compound": "Cc1ccc(CC(=O)N(CC#N)C(c2cncnc2C(F)(F)F)C(C)C)cc1 (racemic)", "reported-metric": "Or (herbicidal effect index on crop)", "recorded-result": 1}
{"compound": "CC(=O)c1ncncc1C(C(C)C)N(C)C(=O)Cc1ccc(F)cc1 (racemic)", "reported-metric": "Or (herbicidal effect index on crop)", "recorded-result": 1}
{"compound": "Cc1ccc(C(c2cncnc2C(F)(F)F)N(C)C(=O)Cc2ccccc2)cc1 (racemic)", "reported-metric": "Or (herbicidal effect index on crop)", "recorded-result": 0}
{"compound": "CC(C)C(c1cncnc1C#N)N(C)C(=O)Cc1ccc(F)cc1 (racemic)", "reported-metric": "Or (herbicidal effect index on crop)", "recorded-result": 0}
{"compound": "CC(C)C(c1cncnc1C(F)(F)F)N(C)C(=O)Cc1cc(F)cc(F)c1F (racemic)", "reported-metric": "Or (herbicidal effect index on crop)", "recorded-result": 1}
{"compound": "CC(C)C(c1cncnc1C(F)(F)F)N(C)C(=O)Cc1ccc(Cl)c(F)c1 (racemic)", "reported-metric": "Or (herbicidal effect index on crop)", "recorded-result": 1}
{"compound": "CN(C(=O)Cc1cccs1)C(c1cncnc1C(F)(F)F)C1(C)CC1 (racemic)", "reported-metric": "Or (herbicidal effect index on crop)", "recorded-result": 1}
{"compound": "CCCC(c1cncnc1C(C)C)N(C)C(=O)Cc1ccc(C)cc1 (racemic)", "reported-metric": "Or (herbicidal effect index on crop)", "recorded-result": 0}
{"compound": "CC(C)C(c1cncnc1C(F)(F)F)N(C)C(=O)COc1ccccc1F (racemic)", "reported-metric": "Or (herbicidal effect index on crop)", "recorded-result": 0}

* * *

- System: barnyard grass (Eo)
- test-details: Test Example 1: herbicidal effects by flooded paddy field treatment
- Type: in vivo
- Set-up: scale not given here
- condition-info: dose 100 g active ingredient per 10 ares, examined on the 21st day after treatment, standards of Table 44
reported-metric: herbicidal effects, Eo (barnyard grass)

{"molecule": "CN(C(=O)Cc1ccc(Cl)cc1F)C(c1cncnc1C(F)(F)F)C(C)(C)C (racemic)", "recorded-result": 5}
{"molecule": "Cc1ccc(CC(=O)N(C)C(C)c2cncnc2C(C)(C)C)cc1 (racemic)", "recorded-result": 5}
{"molecule": "CCC(c1cncnc1C(C)C)N(C)C(=O)Cc1ccc(C)cc1 (racemic)", "recorded-result": 5}
{"molecule": "CC(C)c1ncncc1C(C(C)C)N(C)C(=O)N(C)c1ccc(F)cc1 (racemic)", "recorded-result": 5}
{"molecule": "CN(C(=O)Cc1ccc(F)cc1)C(c1cccs1)c1cncnc1C(F)(F)F (racemic)", "recorded-result": 5}
{"molecule": "CC(C)C(c1cncnc1C(F)(F)F)N(C)C(=O)Cc1ccc(F)cc1F (racemic)", "recorded-result": 5}
{"molecule": "CC(C)C(c1cncnc1C(F)(F)F)N(C)C(=O)NCc1ccccc1 (racemic)", "recorded-result": 5}
{"molecule": "CN(C(=O)Cc1ccc(F)cc1)C(c1cncnc1C(F)(F)F)C1(C)CC1 (racemic)", "recorded-result": 5}
{"molecule": "CCc1ncncc1C(C(C)C)N(C)C(=O)N(C)c1ccccc1 (racemic)", "recorded-result": 5}
{"molecule": "CC(c1cncnc1C(C)(C)C)N(C)C(=O)Cc1ccc(Cl)cc1 (racemic)", "recorded-result": 5}
{"molecule": "CC(C)CC(c1cncnc1C(F)(F)F)N(C)C(=O)Cc1cccs1 (racemic)", "recorded-result": 5}
{"molecule": "COC1(C(c2cncnc2C(C)C)N(C)C(=O)Cc2ccc(C)cc2)OCCO1 (racemic)", "recorded-result": 5}
{"molecule": "COc1ccc(C(c2cncnc2C(F)(F)F)N(C)C(=O)Cc2ccccc2)cc1 (racemic)", "recorded-result": 5}
{"molecule": "Cc1ccccc1C(c1cncnc1C(F)(F)F)N(C)C(=O)Cc1ccc(F)cc1 (racemic)", "recorded-result": 5}
{"molecule": "CCc1ncncc1C(C(C)C)N(C)C(=O)Cc1ccc(F)cc1 (racemic)", "recorded-result": 5}
{"molecule": "CN(C(=O)Cc1ccc(Cl)s1)C(c1cncnc1C(F)(F)F)C1(C)CC1 (racemic)", "recorded-result": 5}
{"molecule": "CCCc1ncncc1C(CCC)N(C)C(=O)Cc1ccc(C)cc1 (racemic)", "recorded-result": 5}
{"molecule": "COC(C)(OC)C(c1cncnc1C(C)C)N(C)C(=O)Cc1ccc(F)cc1 (racemic)", "recorded-result": 5}
{"molecule": "CC(C)C(c1cncnc1C(F)(F)Cl)N(C)C(=S)Oc1ccccc1 (racemic)", "recorded-result": 5}
{"molecule": "CC(=O)c1ncncc1C(C(C)C)N(C)C(=O)Cc1ccc(F)cc1 (racemic)", "recorded-result": 5}
{"molecule": "Cc1ccc(CC(=O)N(C)C(c2cncnc2C(F)(F)F)C2(C)CC2)cc1 (racemic)", "recorded-result": 5}
{"molecule": "CN(C(=O)Cc1ccc(F)cc1)C(c1ccsc1)c1cncnc1C(F)(F)F (racemic)", "recorded-result": 5}
{"molecule": "Cc1ccc(C(C)C(=O)N(C)C(c2cncnc2C(F)(F)F)C(C)C)s1 (mixture of isomers)", "recorded-result": 5}
{"molecule": "CC(C)C(c1cncnc1C#N)N(C)C(=O)Cc1ccc(Cl)cc1 (racemic)", "recorded-result": 5}
{"molecule": "Cc1ccc(N(C)C(=O)N(C)C(c2cncnc2C(F)(F)F)C(C)C)cc1 (racemic)", "recorded-result": 5}
{"molecule": "CN(C(=O)Cc1cccc(F)c1)C(c1ccccc1)c1cncnc1C(F)(F)F (racemic)", "recorded-result": 5}
{"molecule": "COC(C(=O)N(C)C(c1cncnc1C(F)(F)F)C(C)C)c1ccc(Cl)cc1 (mixture of isomers)", "recorded-result": 5}
{"molecule": "COc1ncncc1C(C(C)C)N(C)C(=O)Cc1ccccc1 (racemic)", "recorded-result": 5}
{"molecule": "CC(C)C(c1cncnc1C(F)(F)F)N(C)C(=O)CSc1ccccc1 (racemic)", "recorded-result": 5}
{"molecule": "CCC(c1cncnc1C(C)C)N(C)C(=O)Cc1ccccc1 (racemic)", "recorded-result": 5}
{"molecule": "CN(C(=O)Cc1ccccc1)C(c1ccc(F)cc1)c1cncnc1C(F)(F)F (racemic)", "recorded-result": 5}
{"molecule": "COc1ccccc1C(c1cncnc1C(F)(F)F)N(C)C(=O)Cc1ccccc1 (racemic)", "recorded-result": 5}
{"molecule": "C=CCN(C(=O)Cc1ccc(C)cc1)C(c1cncnc1C(F)(F)F)C(C)C (racemic)", "recorded-result": 5}
{"molecule": "CN(C(=O)Cc1ccc(Cl)cc1)C(c1ccccc1)c1cncnc1C(F)(F)F (racemic)", "recorded-result": 5}

All values here come from patent US6806230B1.
